So I've got a bunch of compounds here, and I need their IC50 values.
molecular target: Recombinant human integrin α5β1 (Homo sapiens (Human), UniProt P05556+P08648); assay: Solid Phase Receptor Assay (SPRA) for α5β1 function; settings: fibronectin-coated plate
Sequence (P08648 42-995): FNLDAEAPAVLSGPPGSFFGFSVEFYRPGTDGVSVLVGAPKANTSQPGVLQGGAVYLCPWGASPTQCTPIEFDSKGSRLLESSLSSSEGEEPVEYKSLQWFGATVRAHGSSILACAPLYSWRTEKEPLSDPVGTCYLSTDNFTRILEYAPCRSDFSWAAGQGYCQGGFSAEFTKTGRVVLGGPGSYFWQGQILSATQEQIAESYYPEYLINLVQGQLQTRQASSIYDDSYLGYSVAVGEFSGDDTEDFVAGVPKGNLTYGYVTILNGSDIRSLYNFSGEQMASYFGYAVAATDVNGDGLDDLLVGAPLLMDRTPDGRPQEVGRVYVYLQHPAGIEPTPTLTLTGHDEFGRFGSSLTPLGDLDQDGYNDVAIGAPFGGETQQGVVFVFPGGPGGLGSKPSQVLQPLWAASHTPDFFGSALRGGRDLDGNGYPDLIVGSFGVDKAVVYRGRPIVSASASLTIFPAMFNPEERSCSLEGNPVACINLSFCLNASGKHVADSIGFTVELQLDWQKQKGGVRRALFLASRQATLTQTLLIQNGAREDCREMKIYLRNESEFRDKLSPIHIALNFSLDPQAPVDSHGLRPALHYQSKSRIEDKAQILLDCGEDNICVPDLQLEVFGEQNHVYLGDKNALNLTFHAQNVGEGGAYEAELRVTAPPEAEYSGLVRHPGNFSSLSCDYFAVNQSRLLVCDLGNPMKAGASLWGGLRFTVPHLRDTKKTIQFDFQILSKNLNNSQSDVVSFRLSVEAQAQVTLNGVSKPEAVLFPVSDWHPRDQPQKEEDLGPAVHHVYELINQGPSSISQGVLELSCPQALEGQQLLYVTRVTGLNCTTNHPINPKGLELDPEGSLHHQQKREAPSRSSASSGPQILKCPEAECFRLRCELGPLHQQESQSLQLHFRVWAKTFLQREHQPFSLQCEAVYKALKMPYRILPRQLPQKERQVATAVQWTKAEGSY
Sequence (P05556 21-728): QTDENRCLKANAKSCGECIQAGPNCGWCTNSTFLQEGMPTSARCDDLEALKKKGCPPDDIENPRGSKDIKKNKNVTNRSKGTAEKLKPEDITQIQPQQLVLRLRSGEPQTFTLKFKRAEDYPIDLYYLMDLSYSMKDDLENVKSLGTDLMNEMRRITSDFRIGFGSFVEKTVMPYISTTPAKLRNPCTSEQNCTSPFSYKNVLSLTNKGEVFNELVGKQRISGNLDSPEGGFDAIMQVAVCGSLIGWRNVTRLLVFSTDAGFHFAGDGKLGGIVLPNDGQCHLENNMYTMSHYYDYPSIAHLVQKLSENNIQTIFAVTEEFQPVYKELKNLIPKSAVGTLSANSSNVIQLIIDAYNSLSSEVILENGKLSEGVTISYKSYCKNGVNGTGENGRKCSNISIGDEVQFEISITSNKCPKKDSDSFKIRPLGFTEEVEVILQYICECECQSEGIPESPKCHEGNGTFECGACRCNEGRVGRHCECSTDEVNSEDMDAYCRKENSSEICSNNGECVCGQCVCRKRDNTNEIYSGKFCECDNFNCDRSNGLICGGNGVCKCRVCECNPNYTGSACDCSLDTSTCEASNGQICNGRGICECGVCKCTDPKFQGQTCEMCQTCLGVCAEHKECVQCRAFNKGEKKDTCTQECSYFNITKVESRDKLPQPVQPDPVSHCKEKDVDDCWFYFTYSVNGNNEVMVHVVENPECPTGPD
Provide only the numeric value, understood in nM.

input: If you can, please state the reported IC50 value of Cc1ccc(O)c(C(CC(=O)O)NC(=O)CNC(=O)c2cc(O)cc(NC3=NCC(O)CN3)c2)c1 (stereo not shown) [Example C6, reference compound] .
output: 7

input: Param item = O=C(O)C[C@H](NC(=O)CNC(=O)c1cc(O)cc(NC2=NCC(O)CN2)c1)c1cc(Cl)cc(C(F)(F)F)c1 (stereo partly shown) ; retrieve measured IC50.
output: 0.8

input: Endpoint output: IC50 of O=C(O)C[C@H](NC(=O)CNC(=O)c1cc(O)cc(NC2=NCC(O)CN2)c1)c1cc(Br)cc(C(F)(F)F)c1 (stereo partly shown) . Value?
output: 0.8

input: IC50 for Cc1cc(C)cc(C(CC(=O)O)NC(=O)CNC(=O)c2cccc(NC(=N)N)c2)c1 (stereo not shown) [Example C4, reference compound] ?
output: 7

###

biological target: Recombinant human integrin αvβ6 (Homo sapiens (Human), UniProt P06756+P18564); test: Solid Phase Receptor Assay (SPRA) for αvβ6 function; conditions: LAP-coated plate
Sequence (P06756 31-992): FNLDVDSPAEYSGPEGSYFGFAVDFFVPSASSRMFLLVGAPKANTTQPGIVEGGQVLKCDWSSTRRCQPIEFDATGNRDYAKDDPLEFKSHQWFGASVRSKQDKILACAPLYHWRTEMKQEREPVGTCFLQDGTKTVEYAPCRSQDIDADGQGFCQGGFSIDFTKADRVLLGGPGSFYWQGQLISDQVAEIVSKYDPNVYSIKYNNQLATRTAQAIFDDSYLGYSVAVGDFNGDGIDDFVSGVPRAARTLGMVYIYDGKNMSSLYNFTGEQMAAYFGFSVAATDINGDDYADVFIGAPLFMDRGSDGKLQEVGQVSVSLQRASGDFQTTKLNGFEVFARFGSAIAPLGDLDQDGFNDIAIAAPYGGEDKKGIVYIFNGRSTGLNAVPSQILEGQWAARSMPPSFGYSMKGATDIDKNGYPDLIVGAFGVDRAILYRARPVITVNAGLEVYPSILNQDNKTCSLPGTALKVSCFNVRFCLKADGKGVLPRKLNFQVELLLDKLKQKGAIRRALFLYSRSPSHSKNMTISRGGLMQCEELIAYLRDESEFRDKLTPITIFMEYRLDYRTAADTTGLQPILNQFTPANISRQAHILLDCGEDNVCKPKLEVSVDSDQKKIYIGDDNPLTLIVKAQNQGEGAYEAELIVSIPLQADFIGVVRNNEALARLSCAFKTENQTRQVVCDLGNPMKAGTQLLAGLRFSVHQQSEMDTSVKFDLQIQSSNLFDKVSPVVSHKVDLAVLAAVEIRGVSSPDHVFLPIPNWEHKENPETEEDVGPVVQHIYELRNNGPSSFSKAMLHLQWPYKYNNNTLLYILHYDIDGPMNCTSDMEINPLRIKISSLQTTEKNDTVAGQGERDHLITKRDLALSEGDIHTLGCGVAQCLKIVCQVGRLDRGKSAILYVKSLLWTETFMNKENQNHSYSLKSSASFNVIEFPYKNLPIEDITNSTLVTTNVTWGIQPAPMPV
Sequence (P18564 22-707): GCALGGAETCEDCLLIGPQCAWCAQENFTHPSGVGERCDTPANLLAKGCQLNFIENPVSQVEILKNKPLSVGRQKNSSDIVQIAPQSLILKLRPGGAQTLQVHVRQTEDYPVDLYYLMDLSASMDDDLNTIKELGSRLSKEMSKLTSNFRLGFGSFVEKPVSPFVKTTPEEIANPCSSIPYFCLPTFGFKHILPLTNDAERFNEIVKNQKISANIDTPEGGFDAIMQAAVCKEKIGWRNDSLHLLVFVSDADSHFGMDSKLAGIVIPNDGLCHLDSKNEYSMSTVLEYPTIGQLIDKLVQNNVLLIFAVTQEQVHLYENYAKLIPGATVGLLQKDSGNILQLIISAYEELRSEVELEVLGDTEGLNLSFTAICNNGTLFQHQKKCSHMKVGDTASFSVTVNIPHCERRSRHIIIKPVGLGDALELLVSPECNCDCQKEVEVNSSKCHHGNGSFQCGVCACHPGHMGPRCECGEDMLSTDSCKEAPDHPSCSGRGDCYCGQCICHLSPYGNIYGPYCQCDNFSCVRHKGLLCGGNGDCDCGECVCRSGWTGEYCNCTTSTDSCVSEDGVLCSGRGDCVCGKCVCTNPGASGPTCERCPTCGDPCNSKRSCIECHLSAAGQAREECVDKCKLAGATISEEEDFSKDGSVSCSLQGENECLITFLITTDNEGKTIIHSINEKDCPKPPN
experimental_endpoint: pIC50
# pIC50: negative log10 of molar concentration; output just the value

input: Kindly state the measured pIC50 obtained for O=C(O)C[C@H](NC(=O)CNC(=O)c1cc(O)cc(NC2=NCC(O)CN2)c1)c1cc(Br)cc(OC(F)(F)F)c1 (some centres unmarked) with Recombinant human integrin αvβ6 (Homo sapiens (Human), UniProt P06756+P18564).
output: 9.15

input: Quick check: pIC50 on Recombinant human integrin αvβ6 (Homo sapiens (Human), UniProt P06756+P18564), item O=C(O)C[C@H](NC(=O)CNC(=O)c1cncc(NC2=NCC(O)CN2)c1)c1cc(Br)cc(C(F)(F)F)c1 (some centres unmarked) ?
output: 9.52

input: Record Cc1cc(Br)cc([C@H](CC(=O)O)NC(=O)CNC(=O)c2cc(O)cc(NC3=NCC(O)CN3)c2)c1 (some centres unmarked) : what is its pIC50 with Recombinant human integrin αvβ6 (Homo sapiens (Human), UniProt P06756+P18564)?
output: 9.30

input: # value lookup — system Recombinant human integrin αvβ6 (Homo sapiens (Human), UniProt P06756+P18564), readout pIC50, item O=C(O)CC(NC(=O)CNC(=O)c1cc(O)cc(NC2=NCC(O)CN2)c1)c1cc(Br)cc(Br)c1O (centres unmarked) [Example C7, reference compound]
output: 7.92

input: Tell me reported pIC50 for O=C(O)CC(NC(=O)CNC(=O)c1cc(O)cc(NC2=NCC(O)CN2)c1)c1cc(Cl)cc(Cl)c1O (centres unmarked) [Example C3, reference compound] , tested with Recombinant human integrin αvβ6 (Homo sapiens (Human), UniProt P06756+P18564).
output: 9.00

input: Recombinant human integrin αvβ6 (Homo sapiens (Human), UniProt P06756+P18564) / pIC50 / O=C(O)C[C@H](NC(=O)CNC(=O)c1cc(O)cc(NC2=NCC(O)CN2)c1)c1cc(F)cc(Br)c1 (some centres unmarked) : value?
output: 9.40

input: Find pIC50 (Recombinant human integrin αvβ6 (Homo sapiens (Human), UniProt P06756+P18564)) for the entry Cc1cc(Cl)cc([C@@H](CC(=O)O)NC(=O)CNC(=O)c2cc(O)cc(NC3=NCC(O)CN3)c2)c1O (some centres unmarked) [Example C10, reference compound]
output: 8.52

input: Lookup: pIC50 / Recombinant human integrin αvβ6 (Homo sapiens (Human), UniProt P06756+P18564) / O=C(O)C[C@H](NC(=O)CNC(=O)c1cncc(NC2=NCC(O)CN2)c1)c1cc(Br)cc(Br)c1 (some centres unmarked)
output: 9.70

input: Recorded pIC50 for N=C(N)Nc1cccc(C(=O)NCC(=O)NC(CC(=O)O)c2ccccc2)c1 (centres unmarked) [Example C5, reference compound] with Recombinant human integrin αvβ6 (Homo sapiens (Human), UniProt P06756+P18564), please?
output: 7.77

input: Recombinant human integrin αvβ6 (Homo sapiens (Human), UniProt P06756+P18564) / pIC50 / O=C(O)C[C@H](NC(=O)CNC(=O)c1cncc(NC2=NCC(O)CN2)c1)c1cc(Cl)cc(C(F)(F)F)c1 (some centres unmarked) : value?
output: 9.52

FYI, the data here is from patent US10035778B2.
